- systemUnderTest: BCL-2/BAK (Homo sapiens, UniProt P10415)
- Sequence (P10415 whole entry): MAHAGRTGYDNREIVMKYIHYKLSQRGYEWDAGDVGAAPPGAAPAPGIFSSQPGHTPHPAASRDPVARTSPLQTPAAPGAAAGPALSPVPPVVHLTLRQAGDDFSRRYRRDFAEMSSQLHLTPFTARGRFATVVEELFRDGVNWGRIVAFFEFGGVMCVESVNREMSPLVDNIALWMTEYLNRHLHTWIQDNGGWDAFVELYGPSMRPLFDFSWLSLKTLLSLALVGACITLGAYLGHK
- assayProtocol: Inhibitory activity for BCL-2/BAK binding (Cisbio BCL-2/BAK (BH3) binding assay kit)
assayReadout: pIC50
Would you please state pIC50, meaning minus log10 of the concentration in mol/L, as a bare number?

Use these answered entries as a reference point.
cpdSmiles	pIC50
Cc1cc(C(F)(F)F)ccc1C1=C(CN2CCN(c3ccc(C(=O)NS(=O)(=O)c4ccc(NC[C@@H]5CN(C(=O)C(C)C)CCO5)c([N+](=O)[O-])c4)c(Oc4cnc5[nH]ccc5c4)c3)CC2)CCC(C)(C)C1	9.14
Cc1cc(C(F)(F)F)ccc1C1=C(CN2CCN(c3ccc(C(=O)NS(=O)(=O)c4ccc(NC[C@@H]5CCOC5)c([N+](=O)[O-])c4)c(Oc4cnc5[nH]ccc5c4)c3)CC2)CCC(C)(C)C1	8.96
Cc1cc(C(F)(F)F)ccc1C1=C(CN2CCN(c3ccc(C(=O)NS(=O)(=O)c4ccc(NC[C@@H]5CCCOC5)c([N+](=O)[O-])c4)c(Oc4cnc5[nH]ccc5c4)c3)CC2)CCC(C)(C)C1	8.68
Cc1cc(C(F)(F)F)ccc1C1=C(CN2CCN(c3ccc(C(=O)NS(=O)(=O)c4ccc(NC[C@H]5COCCO5)c([N+](=O)[O-])c4)c(Oc4cnc5[nH]ccc5c4)c3)CC2)CCC(C)(C)C1	8.83

Turning now to a further record.
Exam item: Param item = Cc1cc(C(F)(F)F)ccc1C1=C(CN2CCN(c3ccc(C(=O)NS(=O)(=O)c4ccc(NC[C@H]5CCOC5)c([N+](=O)[O-])c4)c(Oc4cnc5[nH]ccc5c4)c3)CC2)CCC(C)(C)C1 ; retrieve measured pIC50.
Marked response: 8.90
